- Test Target: T1, human CD40 full-length (human, UniProt P25942 21-277)
- T1 construct: Also used for CD40 of Daudi cells, of CD40-expressing HEK293 cells and of the BPS CD40/NFkB HEK293 reporter cells where the row says so; also called CD4001012; CHOK1SV/CD40
- T1 sequence (P25942 21-277): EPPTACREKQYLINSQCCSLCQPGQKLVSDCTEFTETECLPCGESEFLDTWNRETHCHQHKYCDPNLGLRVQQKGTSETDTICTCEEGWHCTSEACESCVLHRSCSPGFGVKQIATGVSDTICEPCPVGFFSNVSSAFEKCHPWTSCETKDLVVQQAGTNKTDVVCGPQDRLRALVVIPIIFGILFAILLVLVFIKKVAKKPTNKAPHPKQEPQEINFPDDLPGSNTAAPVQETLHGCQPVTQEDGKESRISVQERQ
- Test Name: flow cytometry, CHOK1SV/human CD40 cells
Property Name: binding result

• CD4001092 (Fc fusion, As m65; not shown: wildtype IgG1 Fc region) DVVMTQSPDSLAVSLGERATINCRSSQSLVHYNGYTYLHWYQQKPGQPPKLLIYKVSNRFSGVPDRFSGSGSGTDFTLTISSLQAEDVAVYFCSQTTHVPLTFGAGTKLELRGGGGSGGGGSGGGGSGGGGSEVQLVESGGGVVQPGRSLRLSCAASGFTFSSYAMSWVRQAPGKGLEWVASISSAGTYIYYADSVKGRFTISRDNSKNTLYLQMNGLRAEDTAVYYCARHGNGYDPLWYFDVWGQGTLVTVSS = binds
• CD4001087 (Fc fusion, As m65; not shown: wildtype IgG1 Fc region) EVVMTQSPDTLSVSPGERATLSCRSSQSLVHYNGYTYLHWYQQKPGQVPRLLIYKVSNRFSGVPARFTGSGSGTEFTLTISSLQSEDFAVYFCSQTTHVPLTFGQGTKLEIKGGGGSGGGGSGGGGSGGGGSEVQLVESGGGLVQPGRSLRLSCAASGFTFSSYAMSWVRQAPGKGLEWVASISSAGTYIYYADSVQGRFTISRDNGKNSLYLQMNSLRAEDTALYYCARHGNGYDPLWYFDVWGQGTMVTVSS = binds
• CD4001094 (Fc fusion, As m65; not shown: wildtype IgG1 Fc region) DVQMTQSPILLSASVGDRVTITCRSSQSLVHYNGYTYVHWYQQRTNGSPRLLIYKVSNRFSGVPDRFSGSGSGTDFTLTISSLQPEDIADYFCQQTTHVPLTFGAGTKVEIKGGGGSGGGGSGGGGSGGGGSEVQLLESGGGLVQPGGSLRLSCAASGFTFSSYAMSWVRQAPGKGLEWVASISSAGTYIYYTDSVKGRFSISRDNSKNTLYLQMNSLRAEDTAVYYCARHGNGYDPLWYFDVWGQGTTVTVSS = binds
